study-target: BRM (Homo sapiens)
protocol-description: ATPase catalytic activity assay of BRM (ADP-Glo)
Type: biochemical
details: read-out: BRM IC50 (μM)*
property-name: IC50

// known answers, use as guide
• CN1CCc2ccc(-c3csc(NC(=O)CNC(=O)c4ccc5c(c4)C(C)(CO)CC5)n3)cc2C1=O (stereo in doubt) = 0.1 to 1 µM
• Cc1nccc(-c2cccc(-c3csc(NC(=O)CNC(=O)c4ccc5c(c4)[C@](C)(CO)CC5)n3)n2)n1 = < 0.1 µM
• C[C@@H]1CN(c2cccc(-c3csc(NC(=O)CNC(=O)c4ccc5c(c4)C(C#N)(CO)COC5)n3)c2)C[C@H](C)O1 (some centres unmarked) = < 0.1 µM
• CCC(C)(CO)c1cccc(C(=O)NCC(=O)Nc2nc(-c3cccc(-c4ccncc4)c3)cs2)c1 (centres unmarked) = 0.1 to 1 µM
• C[C@@H]1CN(c2cc(F)cc(-c3csc(NC(=O)CNC(=O)c4ccc(Cl)c(C(C)(C)CO)c4)n3)c2)C[C@H](C)O1 = < 0.1 µM
• C[Si](C)(C)c1cccc(C(=O)NCC(=O)Nc2nc(-c3cccc(-c4ccncc4)c3)cs2)c1 = 0.1 to 1 µM
• CC(C)(CO)c1cccc(C(=O)NCC(=O)Nc2nc(-c3cccc(-c4ccncc4)c3)cs2)c1 = < 0.1 µM
• Cc1cc(-c2cccc(-c3csc(NC(=O)CNC(=O)c4ccc5c(c4)[C@@](C)(CO)CCC5)n3)n2)ncn1 = 0.1 to 1 µM

Assign IC50 to the following record: COc1nccc(-c2cccc(-c3csc(NC(=O)CNC(=O)c4cccc(S(=O)(=O)C(C)C)c4)n3)n2)n1
< 0.1 µM

Assign IC50 to the following record: CC(C)S(=O)(=O)c1cccc(C(=O)NCC(=O)Nc2nc(-c3cc(C#N)cc(-c4ccc(CN)cc4)c3)cs2)c1
> 5 µM

---

study-target: BRM (Homo sapiens, UniProt P51531)
Sequence (P51531 whole entry): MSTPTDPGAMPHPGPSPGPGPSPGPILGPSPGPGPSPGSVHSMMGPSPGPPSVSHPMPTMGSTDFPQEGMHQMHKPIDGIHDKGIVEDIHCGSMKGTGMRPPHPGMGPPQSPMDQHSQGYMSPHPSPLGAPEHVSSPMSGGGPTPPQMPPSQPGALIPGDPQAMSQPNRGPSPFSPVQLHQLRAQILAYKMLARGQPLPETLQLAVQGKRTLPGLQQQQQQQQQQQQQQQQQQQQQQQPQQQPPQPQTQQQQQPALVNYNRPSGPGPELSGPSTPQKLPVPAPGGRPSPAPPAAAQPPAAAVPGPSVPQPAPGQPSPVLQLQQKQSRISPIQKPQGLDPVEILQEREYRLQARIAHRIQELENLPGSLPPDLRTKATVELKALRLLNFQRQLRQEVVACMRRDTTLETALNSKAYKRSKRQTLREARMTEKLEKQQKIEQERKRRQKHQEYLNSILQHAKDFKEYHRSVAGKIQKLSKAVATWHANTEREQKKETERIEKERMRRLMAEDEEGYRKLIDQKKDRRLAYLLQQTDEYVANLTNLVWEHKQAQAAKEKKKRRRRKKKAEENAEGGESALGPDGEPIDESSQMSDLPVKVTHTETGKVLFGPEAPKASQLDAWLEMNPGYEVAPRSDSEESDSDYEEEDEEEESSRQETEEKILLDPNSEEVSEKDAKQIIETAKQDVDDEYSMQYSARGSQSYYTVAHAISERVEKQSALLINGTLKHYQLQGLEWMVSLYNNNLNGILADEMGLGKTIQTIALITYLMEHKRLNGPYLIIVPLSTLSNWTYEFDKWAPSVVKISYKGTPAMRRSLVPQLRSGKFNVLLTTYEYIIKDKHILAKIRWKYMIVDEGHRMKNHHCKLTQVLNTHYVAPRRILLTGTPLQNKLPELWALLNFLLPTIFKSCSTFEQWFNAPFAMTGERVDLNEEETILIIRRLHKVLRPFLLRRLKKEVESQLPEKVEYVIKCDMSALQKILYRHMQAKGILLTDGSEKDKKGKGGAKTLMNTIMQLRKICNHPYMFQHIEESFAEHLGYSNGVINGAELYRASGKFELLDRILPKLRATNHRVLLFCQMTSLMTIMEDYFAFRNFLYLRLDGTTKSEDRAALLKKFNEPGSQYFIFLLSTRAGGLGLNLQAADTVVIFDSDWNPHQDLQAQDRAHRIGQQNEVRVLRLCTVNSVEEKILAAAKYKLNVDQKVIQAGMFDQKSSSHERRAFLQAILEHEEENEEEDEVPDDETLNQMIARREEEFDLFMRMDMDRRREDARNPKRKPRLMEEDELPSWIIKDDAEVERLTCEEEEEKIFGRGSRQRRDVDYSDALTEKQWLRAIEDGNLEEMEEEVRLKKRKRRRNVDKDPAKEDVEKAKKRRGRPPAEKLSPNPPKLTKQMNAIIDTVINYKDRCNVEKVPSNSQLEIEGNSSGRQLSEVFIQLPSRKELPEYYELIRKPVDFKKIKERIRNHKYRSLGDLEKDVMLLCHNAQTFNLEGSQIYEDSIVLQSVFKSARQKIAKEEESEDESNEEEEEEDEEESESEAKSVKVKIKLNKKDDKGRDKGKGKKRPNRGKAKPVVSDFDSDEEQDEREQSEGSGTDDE
protocol-description: ATPase catalytic activity assay of BRM (ADP-Glo)
Format: biochemical
details: read-out: BRM IC50 (μM)*
Measured IC50 accompanies every entry in the list below.

• C[C@@]1(F)COCc2ccc(C(=O)NCC(=O)Nc3nc(-c4cccc(C#N)c4)cs3)cc21 [Compound 315] = < 0.1 µM
• CC1(C#N)CCc2ccc(C(=O)NCC(=O)Nc3nc(-c4cccc(-c5ccncc5)c4)cs3)cc21 (centres unmarked) [Compound 76] = < 0.1 µM
• CC1(CO)CCc2ccc(C(=O)NCC(=O)Nc3nc(-c4ccn5ccnc5c4)cs3)cc21 (stereo in doubt) [Compound 178] = 0.1 to 1 µM
• CC(C)S(=O)(=O)c1cccc(C(=O)NCC(=O)Nc2nc(-c3cccc(-c4cccnc4)c3)cs2)c1 [Compound 39] = 0.1 to 1 µM
• CC1(CO)CCc2ccc(C(=O)NCC(=O)Nc3nc(-c4cccc(-c5ccncc5)c4)cs3)cc21 (single isomer, unassigned) [Compound 105] = < 0.1 µM

Assign IC50 to the following record: C[C@H](NC(=O)c1cccc(C(C)(C)CN)c1)C(=O)Nc1nc(-c2cccc(-c3ccncc3)c2)cs1 [Compound 65]
0.1 to 1 µM

Assign IC50 to the following record: COc1cc(F)cc(-c2csc(NC(=O)CNC(=O)c3ccc4c(c3)[C@](C)(C#N)COC4)n2)c1 [Compound 377]
< 0.1 µM
